Sourced from paper PMC10786891

Property: Kd; scope: individual binders
# ASSAY_SYSTEM: T1, EsCas13d, nuclease-dead (Eubacterium siraeum, UniProt B0MS50, R295A;H300A;R849A;H854A)
# T1 sequence: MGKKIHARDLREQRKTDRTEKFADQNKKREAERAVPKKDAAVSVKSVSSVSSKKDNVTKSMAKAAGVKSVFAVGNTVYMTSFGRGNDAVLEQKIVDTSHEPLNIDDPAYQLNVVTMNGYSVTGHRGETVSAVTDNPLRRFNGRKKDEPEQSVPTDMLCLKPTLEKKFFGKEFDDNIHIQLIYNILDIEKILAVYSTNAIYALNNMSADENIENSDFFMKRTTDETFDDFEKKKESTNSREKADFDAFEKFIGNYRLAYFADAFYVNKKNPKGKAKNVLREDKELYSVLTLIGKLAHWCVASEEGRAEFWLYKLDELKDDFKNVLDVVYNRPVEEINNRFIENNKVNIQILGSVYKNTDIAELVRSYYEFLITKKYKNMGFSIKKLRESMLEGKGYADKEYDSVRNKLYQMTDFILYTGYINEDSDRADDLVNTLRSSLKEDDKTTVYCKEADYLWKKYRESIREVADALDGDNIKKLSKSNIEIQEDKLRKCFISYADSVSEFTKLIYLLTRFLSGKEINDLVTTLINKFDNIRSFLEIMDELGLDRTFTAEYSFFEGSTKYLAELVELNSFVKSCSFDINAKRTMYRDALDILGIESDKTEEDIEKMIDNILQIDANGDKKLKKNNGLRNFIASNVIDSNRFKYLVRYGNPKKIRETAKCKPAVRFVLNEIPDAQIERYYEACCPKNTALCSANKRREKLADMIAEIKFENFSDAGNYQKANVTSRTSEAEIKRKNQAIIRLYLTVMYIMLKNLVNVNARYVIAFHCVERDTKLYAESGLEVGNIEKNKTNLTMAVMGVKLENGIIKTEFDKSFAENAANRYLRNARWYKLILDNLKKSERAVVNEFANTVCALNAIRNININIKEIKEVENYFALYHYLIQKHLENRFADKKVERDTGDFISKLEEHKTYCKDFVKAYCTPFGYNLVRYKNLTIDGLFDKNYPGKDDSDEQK
# RUN_DESCRIPTION: crRNA (strand 1, pre-loaded); Mg2+; 40 mM Tris-HCl pH 7.5, 150 mM NaCl, 6 mM MgCl2, 1 mM DTT, 0.1% Tween-20, 0.2 mg/ml BSA; 25 C; 10 min per concentration, then washed
# EXPERIMENTAL_CONDITIONS: tags: His6-TwinStrep-SUMO cleaved; N-terminal SNAP kept (SNAP-Surface 488); label: 3' end held by stalled T7 RNA polymerase
The response must be a number in nM with no trailing unit.

INSERT INTO measurements (binder, value_measured) VALUES
  ('target 1 U8C,C22U (mixed) RNA 1: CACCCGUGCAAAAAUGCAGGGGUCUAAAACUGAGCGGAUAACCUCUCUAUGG RNA 2: GGGAAUGGAUCCACAUCUACGAAUUCGUAUCAUAGAGAGGUUACCCGCUCACCGAGAUCGGAAGAGCACACGU', 28);

# binder target 2 MT 5'PFS UAA 3'PFS CGC (mixed) RNA 1: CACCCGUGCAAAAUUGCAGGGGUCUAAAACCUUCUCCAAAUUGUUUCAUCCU RNA 2: GGGAAUGGAUCCACAUCUACGAAUUCUAAAGGAUGAAACAAUUUGGAGAAGCGCAGAUCGGAAGAGCACACGU ; its Kd = 4.3

# binder target 2 MT 5'PFS CCU 3'PFS UCU (mixed) RNA 1: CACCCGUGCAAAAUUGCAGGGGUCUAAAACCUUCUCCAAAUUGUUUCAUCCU RNA 2: GGGAAUGGAUCCACAUCUACGAAUUCCCUAGGAUGAAACAAUUUGGAGAAGUCUAGAUCGGAAGAGCACACGU ; its Kd = 2.71

# binder target 1 insG 3' of 16,insC 3' of 11 (mixed) RNA 1: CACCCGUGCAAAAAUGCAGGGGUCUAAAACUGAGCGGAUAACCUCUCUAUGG RNA 2: GGGAAUGGAUCCACAUCUACGAAUUCGUACCAUAGAGGAGGUCUAUCCGCUCACCGAGAUCGGAAGAGCACACGU ; its Kd = 46

# binder target 1 insA 3' of 12,insU 3' of 4 (mixed) RNA 1: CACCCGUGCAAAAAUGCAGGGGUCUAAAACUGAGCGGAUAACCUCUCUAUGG RNA 2: GGGAAUGGAUCCACAUCUACGAAUUCGUACCAUAGAGAGGAUUAUCCGCUUCACCGAGAUCGGAAGAGCACACGU ; its Kd = 26.3

# binder target 1 insA 3' of 10 (mixed) RNA 1: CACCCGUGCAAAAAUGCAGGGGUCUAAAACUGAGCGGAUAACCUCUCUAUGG RNA 2: GGGAAUGGAUCCACAUCUACGAAUUCGUACCAUAGAGAGGUUAAUCCGCUCACCGAGAUCGGAAGAGCACACGU ; its Kd = 12
